- Experiment description: in vivo
- Settings: both, cynomolgus monkey, po
Parameter measured: half-life (h)
Expressed in h, but write only the number.

Given the compound CC(C)(C)[C@H](NC(=O)C(F)(F)F)C(=O)N1CC2(C[C@H]1C(=O)N[C@H](C#N)C[C@@H]1CCNC1=O)SCCS2 [compound 9, simnotrelvir] , write its reported half-life.
2.38

---

- Experiment description: in vivo
- Settings: both, cynomolgus monkey, 5 mg/kg
Parameter measured: half-life (h)
// units = h; emit number, no label

Annotate the molecule CC(C)(C)[C@H](NC(=O)C(F)(F)F)C(=O)N1CC2(C[C@H]1C(=O)N[C@H](C#N)C[C@@H]1CCNC1=O)SCCS2 with its measured half-life.
1.7
